- assayedSystem: T1, FITC-labeled AC413(6–25) with Y25P mutation (fluorescein isothiocyanate (FITC) on the N-terminus)
- T1 construct: AC413, an antagonist amylin analog, residues 6-25 (20 amino acids) with Y25P; also called FITC-AC413(6–25) Y25P; AC413(6–25) Y25P; source: synthetic peptide (custom-synthesized, Genscript, HPLC-purified)
- measurementDescription: fluorescence polarisation; saturation binding format; 10 nM FITC-labeled peptide probe, purified receptor ECD at rising concentrations; 1 h at room temperature; anisotropy; mean pKD of at least three independent experiments
- recordedConditions: both partners purified
outcomeMeasure: pKD
Number, no unit, nothing else.

For orientation, consider the following solved cases.
[[record]]
binder = "amylin receptor 1 extracellular domain with calcitonin receptor D97E (hRAMP1.24–111-(GSA)3-hCTR.34–141.D97E-H6) (receptor, N-glycosylated (sites not given)) TTACQEANYGALLRELCLTQFQVDMEAVGETLWCDWGRTIRSYRELADCTWHMAEKLGCFWPNAEVDRFFLAVHGRYFRSCPISGRAVGSAGSAGSAIEPKPFLYVVGRKKMMDAQYKCYDRMQQLPAYQGEGPYCNRTWDGWLCWDDTPAGVLSYQFCPEYFPDFDPSEKVTKYCDEKGVWFKHPENNRTWSNYTMCNAFTPEK"
reportedvalue = 7.09

[[record]]
binder = "amylin receptor 1 extracellular domain with calcitonin receptor D97A (hRAMP1.24–111-(GSA)3-hCTR.34–141.D97A-H6) (receptor, N-glycosylated (sites not given)) TTACQEANYGALLRELCLTQFQVDMEAVGETLWCDWGRTIRSYRELADCTWHMAEKLGCFWPNAEVDRFFLAVHGRYFRSCPISGRAVGSAGSAGSAIEPKPFLYVVGRKKMMDAQYKCYDRMQQLPAYQGEGPYCNRTWDGWLCWDDTPAGVLSYQFCPAYFPDFDPSEKVTKYCDEKGVWFKHPENNRTWSNYTMCNAFTPEK"
reportedvalue = 7.21

[[record]]
binder = "amylin receptor 1 extracellular domain, wild type (hRAMP1.24–111-(GSA)3-hCTR.34–141-H6) (receptor, N-glycosylated (sites not given)) TTACQEANYGALLRELCLTQFQVDMEAVGETLWCDWGRTIRSYRELADCTWHMAEKLGCFWPNAEVDRFFLAVHGRYFRSCPISGRAVGSAGSAGSAIEPKPFLYVVGRKKMMDAQYKCYDRMQQLPAYQGEGPYCNRTWDGWLCWDDTPAGVLSYQFCPDYFPDFDPSEKVTKYCDEKGVWFKHPENNRTWSNYTMCNAFTPEK"
reportedvalue = 7.24

[[record]]
binder = "amylin receptor 1 extracellular domain with calcitonin receptor N124A (hRAMP1.24–111-(GSA)3-hCTR.34–141.N124A-H6) (receptor, N-glycosylated (sites not given)) TTACQEANYGALLRELCLTQFQVDMEAVGETLWCDWGRTIRSYRELADCTWHMAEKLGCFWPNAEVDRFFLAVHGRYFRSCPISGRAVGSAGSAGSAIEPKPFLYVVGRKKMMDAQYKCYDRMQQLPAYQGEGPYCNRTWDGWLCWDDTPAGVLSYQFCPDYFPDFDPSEKVTKYCDEKGVWFKHPEANRTWSNYTMCNAFTPEK"
reportedvalue = 6.33

[[record]]
binder = "amylin receptor 1 extracellular domain with calcitonin receptor E123D (hRAMP1.24–111-(GSA)3-hCTR.34–141.E123D-H6) (receptor, N-glycosylated (sites not given)) TTACQEANYGALLRELCLTQFQVDMEAVGETLWCDWGRTIRSYRELADCTWHMAEKLGCFWPNAEVDRFFLAVHGRYFRSCPISGRAVGSAGSAGSAIEPKPFLYVVGRKKMMDAQYKCYDRMQQLPAYQGEGPYCNRTWDGWLCWDDTPAGVLSYQFCPDYFPDFDPSEKVTKYCDEKGVWFKHPDNNRTWSNYTMCNAFTPEK"
reportedvalue = 6.87


Q: Quick check: pKD of amylin receptor 1 extracellular domain with calcitonin receptor N124D (hRAMP1.24–111-(GSA)3-hCTR.34–141.N124D-H6) (receptor, N-glycosylated (sites not given)) TTACQEANYGALLRELCLTQFQVDMEAVGETLWCDWGRTIRSYRELADCTWHMAEKLGCFWPNAEVDRFFLAVHGRYFRSCPISGRAVGSAGSAGSAIEPKPFLYVVGRKKMMDAQYKCYDRMQQLPAYQGEGPYCNRTWDGWLCWDDTPAGVLSYQFCPDYFPDFDPSEKVTKYCDEKGVWFKHPEDNRTWSNYTMCNAFTPEK ?
Ans: 6.09

Q: Please look up its pKD: amylin receptor 1 extracellular domain with calcitonin receptor E123A (hRAMP1.24–111-(GSA)3-hCTR.34–141.E123A-H6) (receptor, N-glycosylated (sites not given)) TTACQEANYGALLRELCLTQFQVDMEAVGETLWCDWGRTIRSYRELADCTWHMAEKLGCFWPNAEVDRFFLAVHGRYFRSCPISGRAVGSAGSAGSAIEPKPFLYVVGRKKMMDAQYKCYDRMQQLPAYQGEGPYCNRTWDGWLCWDDTPAGVLSYQFCPDYFPDFDPSEKVTKYCDEKGVWFKHPANNRTWSNYTMCNAFTPEK
Ans: 6.89
